test method notes: BSK_4H_Eotaxin3: BioMAP Diversity Plus: 4H Assay for Eotaxin 3 Biomarker Activity (AID 2283000);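 as to Outcome: CCL26 protein level quantified by ELISA in parallel with SRB cytotoxicity check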
test parameters: primary human endothelial cells (HUVEC); actives raise or lower the signal
The source made the active and inactive calls. The calls were made as follows: active = hit-call score of the fitted dose curve at least 0.9, where 1 is the maximum; inactive = score below 0.9.
Outcome codes: true for active, false for inactive

{"columns": ["compound", "class label"],
 "data": [
  ["CCCCCCCCCCCCO", "true"],
  ["COc1cccc([C@H](O)C2CCN(CCc3ccc(F)cc3)CC2)c1OC", "false"],
  ["CCO[Si](CCCNC(N)=O)(OCC)OCC", "false"],
  ["CCCC(=O)OCCC(C)C", "false"],
  ["CC[C@H](NC(=O)c1cc(F)ccc1NS(=O)(=O)c1cccc2cccnc12)c1ccccc1", "false"],
  ["OCCO", "false"],
  ["CCCCCCCCN(C)CCCCCCCC", "false"],
  ["Cc1cccc2ccccc12", "false"],
  ["COc1cc(C(=O)NC2CCN(C)CC2)ccc1Nc1ncc2c(n1)N(C1CCCC1)CC(F)(F)C(=O)N2C", "true"],
  ["O=C(O)Cc1cc(I)c(Oc2ccc(O)c(I)c2)c(I)c1", "true"],
  ["Cc1occc1C(=O)Nc1ccc(C(=O)N2CCC(F)(F)/C(=C\\C(=O)N3CCC(N4CCCCC4)CC3)c3ccccc32)cc1", "false"],
  ["CN1C(=O)CC[C@H]1c1cccnc1", "false"],
  ["c1ccc2n[nH]nc2c1", "false"],
  ["CCCCOC(=O)CC(CC(=O)OCCCC)(OC(C)=O)C(=O)OCCCC", "false"]
]}

====

Read-out: CD69, CD69 (gene 969)
test method notes: BSK_SAg_CD69: BioMAP Diversity Plus: SAg Assay for CD69 Biomarker Activity (AID 2283089)
test parameters: primary human HUVEC with PBMC; actives raise or lower the signal
Activity calls are given as the source filed them. How the source made its calls: active means hit-call score of the fitted dose curve at least 0.9, where 1 is the maximum; inactive means score below 0.9.
Possible outcomes: Y (active), N (inactive)

{"columns": ["molecule", "class label"],
 "data": [
  ["CC1(C)NC(=O)N(c2ccc([N+](=O)[O-])c(C(F)(F)F)c2)C1=O", "N"],
  ["Cc1ncc(CO)c(CO)c1O", "N"],
  ["CC(O)CC(C)(C)O (stereo not given)", "N"],
  ["CC(C)(c1cc(Br)c(O)c(Br)c1)c1cc(Br)c(O)c(Br)c1", "Y"],
  ["CCCCCCCCCCCC[N+](C)(C)C", "Y"],
  ["Clc1ccccc1C(c1ccccc1)(c1ccccc1)n1ccnc1", "Y"],
  ["NCc1cccc(C2CCN(C(=O)c3ccc(C#Cc4ccccc4F)o3)CC2)c1", "Y"],
  ["OC12N=C(c3ccccc3)SC1Cc1cc(Cl)ccc12 (stereo not given)", "N"],
  ["c1ccc(C[n+]2cccc3ccccc32)cc1", "N"],
  ["CN(C)c1ccc(C(=C2C=CC(=[N+](C)C)C=C2)c2ccc(N(C)C)cc2)cc1", "Y"],
  ["CC[C@H](NC(=O)c1cc(F)ccc1NS(=O)(=O)c1cccc2cccnc12)c1ccccc1", "Y"],
  ["OCCO", "N"],
  ["CC(C)(O)c1ccc(CNC(=O)c2cccnc2Oc2ccc3nonc3c2)cc1", "N"],
  ["O=c1c(-c2ccc(O)cc2)coc2cc(O)cc(O)c12", "Y"],
  ["CCO[Si](CCCNC(N)=O)(OCC)OCC", "N"],
  ["CCCCCCCCCC(=O)O", "N"],
  ["CC(=O)N1CCN(c2ccc(OC[C@H]3CO[C@](Cn4ccnc4)(c4ccc(Cl)cc4Cl)O3)cc2)CC1", "Y"],
  ["Cc1cc2c(cc1C(F)(F)F)N(C(=O)Nc1ccc(Oc3cccnc3C)nc1)CC2", "N"],
  ["Oc1ccccc1", "N"],
  ["Clc1cc(Cl)c2c(c1)N=C1CCCCCN1C2", "N"],
  ["CCCOC(=O)c1cc(O)c(O)c(O)c1", "N"],
  ["CCCCCCCCCCCCO", "Y"],
  ["COCC(C)OCC(C)OCC(C)O (stereo not given)", "N"],
  ["Cc1cccc2ccccc12", "N"],
  ["O=C(Nc1ccc(Cl)cc1)Nc1ccc(Cl)c(Cl)c1", "Y"],
  ["O=C1CCC(C2CCCCC2)CC1", "N"],
  ["O=C(OCCCCCCOC(=O)c1ccccc1)c1ccccc1", "N"],
  ["O=C(O)Cn1c(=O)n(Cc2ccc(Br)cc2F)c(=O)c2ccc(Cl)cc21", "N"],
  ["CCCCCCCCOC(=O)c1cc(O)c(O)c(O)c1", "Y"],
  ["C[C@]12CC[C@@H]3c4ccc(O)cc4CC[C@H]3[C@@H]1CC[C@H]2O", "N"],
  ["O=C1O[C@H]([C@@H](O)CO)C(O)=C1O", "N"],
  ["CC[C@@H]1C[C@H](N(Cc2cc(C(F)(F)F)cc(C(F)(F)F)c2)C(C)=O)c2cc(C(F)(F)F)ccc2N1C(=O)OC(C)C", "N"],
  ["Cc1cn([C@H]2C[C@H](N=[N+]=[N-])[C@@H](CO)O2)c(=O)[nH]c1=O", "N"],
  ["CCOC(=O)O[C@H](C)OC(=O)c1ccc2c(c1)cc(C(=O)NC1CCN(C(C)C)CC1)n2Cc1cc(-c2ccc(Cl)s2)on1", "Y"],
  ["CC(C)(C)c1cc(/C=C2\\SC(N)=NC2=O)cc(C(C)(C)C)c1O", "Y"]
]}

====

test method notes: BSK_hDFCGF_SRB: Viability Assessment in the BioMAP Diversity Plus: hDFCGF Assay (AID 2283061);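 also: cells exposed to compound for 24 h before the read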
test parameters: primary human foreskin fibroblasts
Active and inactive are the calls of the source. Rule for the calls: active = hit-call score of the fitted dose curve at least 0.9, where 1 is the maximum; inactive = score below 0.9.
Outcomes: active, inactive

{"columns": ["compound", "class label"],
 "data": [
  ["CCO[Si](CCCNC(N)=O)(OCC)OCC", "inactive"],
  ["CC1=CC(=O)/C(=C(/C)O)C(=O)O1", "inactive"],
  ["CC(C)(c1cc(Br)c(O)c(Br)c1)c1cc(Br)c(O)c(Br)c1", "active"],
  ["CCCOC(=O)c1cc(O)c(O)c(O)c1", "inactive"],
  ["O=c1ccc2ccccc2o1", "inactive"],
  ["CC(O)CC(C)(C)O (stereo not drawn)", "inactive"],
  ["NC(=O)c1nc(-c2cccc(-c3cc(F)ccc3OCC(F)(F)C(F)(F)F)c2)n[nH]1", "active"],
  ["CCN(CC)C(=O)c1cc(S(=O)(=O)Cc2ccccc2)c(N2CCC(c3ccccc3)CC2)cc1N(CC)CCN(C)C", "inactive"],
  ["CCCCCc1ccc(N)cc1", "inactive"],
  ["CN(C)C(=O)C1(N2CCCCC2)CCN(CC[C@@]2(c3ccc(Cl)c(Cl)c3)CN(C(=O)c3ccccc3)CCO2)CC1", "active"],
  ["CC(C)(O)c1ccc(CNC(=O)c2cccnc2Oc2ccc3nonc3c2)cc1", "inactive"],
  ["Oc1ccc2ccccc2c1", "inactive"],
  ["Cc1occc1C(=O)Nc1ccc(C(=O)N2CCC(F)(F)/C(=C\\C(=O)N3CCC(N4CCCCC4)CC3)c3ccccc32)cc1", "inactive"],
  ["Cc1ncc(CO)c(CO)c1O", "inactive"],
  ["CC/C(=C(/CC)c1ccc(O)cc1)c1ccc(O)cc1", "active"],
  ["CCCCCCCCCCCO", "active"],
  ["CC(=O)N1CCN(c2ccc(OC[C@H]3CO[C@](Cn4ccnc4)(c4ccc(Cl)cc4Cl)O3)cc2)CC1", "active"],
  ["COc1cc(C(=O)NC2CCN(C)CC2)ccc1Nc1ncc2c(n1)N(C1CCCC1)CC(F)(F)C(=O)N2C", "active"]
]}

====

Read-out: Plasminogen activator inhibitor-1 (PAI1), SERPINE1 (gene 5054)
test method notes: BSK_hDFCGF_PAI1: BioMAP Diversity Plus: hDFCGF Assay for Plasminogen activator inhibitor-1 (PAI1) Biomarker Activity (AID 2283066)
test parameters: primary human foreskin fibroblasts; actives raise or lower the signal
Activity calls are given as the source filed them. Rule for the calls: active = hit-call score of the fitted dose curve at least 0.9, where 1 is the maximum; inactive = score below 0.9.
Possible outcomes: yes = active, no = inactive

{"columns": ["compound", "class label"],
 "data": [
  ["CCCCCCCCCCCC[N+](C)(C)C", "yes"],
  ["CCCCCCCCOC(=O)c1cc(O)c(O)c(O)c1", "yes"],
  ["CCN(Cc1cccc(S(=O)(=O)O)c1)c1ccc(C(=C2C=CC(=[N+](CC)Cc3cccc(S(=O)(=O)O)c3)C=C2)c2ccccc2S(=O)(=O)[O-])cc1", "no"],
  ["CC/C(=C(/CC)c1ccc(O)cc1)c1ccc(O)cc1", "yes"],
  ["CCN(Cc1cccnc1)C(=O)c1cccc(Cl)c1[C@]1(C)C(=O)N(Cc2ccc(OC)cc2OC)c2ccc(Cl)cc21", "yes"],
  ["CC1=CC(=O)/C(=C(/C)O)C(=O)O1", "no"]
]}

====

Read-out: Glutamate-cysteine ligase catalytic (GCLC), GCLC (gene 2729)
test method notes: LTEA_HepaRG_GCLC: Life Technologies and Expression Analysis (LTEA) Assay for Glutamate-cysteine ligase catalytic (GCLC) using HepaRG (AID 2283498)
test parameters: mRNA level, 48 h; actives raise or lower the signal
Activity calls are given as the source filed them. Rule for the calls: active = hit-call score of the fitted dose curve at least 0.9, where 1 is the maximum; inactive = score below 0.9.
Possible outcomes: active, inactive

{"columns": ["compound", "class label"],
 "data": [
  ["Cc1c2ccccc2c(C)c2c1ccc1ccccc12", "inactive"],
  ["CN1C(=O)CC[C@H]1c1cccnc1", "inactive"],
  ["Cc1cccc2ccccc12", "inactive"],
  ["CO[C@H]1/C=C/O[C@@]2(C)Oc3c(C)c(O)c4c(O)c(c(/C=N/N5CCN(C)CC5)c(O)c4c3C2=O)NC(=O)/C(C)=C\\C=C\\[C@H](C)[C@H](O)[C@@H](C)[C@@H](O)[C@@H](C)[C@H](OC(C)=O)[C@@H]1C", "inactive"],
  ["CCCCCCCCCCCCO", "inactive"],
  ["CC(C)(C)c1csc(-c2cc3cc(OCc4ccccc4CC(=O)O)ccc3o2)n1", "active"],
  ["CCCCCCCCCCCO", "inactive"],
  ["Cc1occc1C(=O)Nc1ccc(C(=O)N2CCC(F)(F)/C(=C\\C(=O)N3CCC(N4CCCCC4)CC3)c3ccccc32)cc1", "inactive"],
  ["O=C(O)c1ccccc1-n1cc(C(=O)O)c(=O)c2cc(Nc3c(F)cc(F)cc3Cl)c(Cl)cc21", "inactive"],
  ["O=C1c2ccccc2C(=O)N1CCc1noc(-c2ccc(CN3CCCCCC3)s2)n1", "inactive"],
  ["NCc1cccc(C2CCN(C(=O)c3ccc(C#Cc4ccccc4F)o3)CC2)c1", "inactive"],
  ["COc1cc(C(=O)NC2CCN(C)CC2)ccc1Nc1ncc2c(n1)N(C1CCCC1)CC(F)(F)C(=O)N2C", "active"],
  ["CN(C)C(=O)C1(N2CCCCC2)CCN(CC[C@@]2(c3ccc(Cl)c(Cl)c3)CN(C(=O)c3ccccc3)CCO2)CC1", "active"],
  ["CN(C)c1ccc(C(=C2C=CC(=[N+](C)C)C=C2)c2ccc(N(C)C)cc2)cc1", "active"],
  ["Clc1ccccc1C(c1ccccc1)(c1ccccc1)n1ccnc1", "active"],
  ["c1ccc2n[nH]nc2c1", "inactive"],
  ["c1ccc2ccccc2c1", "inactive"],
  ["CCCCCCCCN(C)CCCCCCCC", "inactive"],
  ["CC[C@H](NC(=O)c1cc(F)ccc1NS(=O)(=O)c1cccc2cccnc12)c1ccccc1", "active"],
  ["Cc1oc2c(NC(=O)c3c(Cl)cccc3Cl)cccc2c1C(C)(C)O", "active"],
  ["CC(=O)N1CCN(c2ccc(OC[C@H]3CO[C@](Cn4ccnc4)(c4ccc(Cl)cc4Cl)O3)cc2)CC1", "active"],
  ["CCCC(=O)OCCC(C)C", "inactive"]
]}
